Please respond with reported TGI for every item in the list.
System: BT-549 breast
ASSAY OVERVIEW: NCI tumour cell line growth inhibition, 48 h

Task item: Could you share which TGI value was measured for Cc1cc2c(cc1C(=O)c1ccc(N)cc1)OCO2 ?
Reply: > 100 µM

Task item: Query (molecule): CC(=O)N(C)CCc1c[nH]c2ccccc12 ; field requested: TGI
Reply: > 100 µM

Task item: Look up TGI: CN(C)c1ncnc2c1ncn2CCn1cnc2c(N(C)C)ncnc21
Reply: > 100 µM

---

System: MOLT-4 leukemia
ASSAY OVERVIEW: NCI tumour cell line growth inhibition, 48 h
I'd be grateful if you could share measured TGI for these entries.

Task item: I have this molecule here, COc1ccc(/C=C(\C(C)=O)C(=O)Nc2ccccc2)cc1 , and I need its recorded TGI.
Reply: > 100 µM

Task item: // returns reported TGI for input O=C(Cn1c(-c2ccccc2)cc2ccccc21)N1CCCC1
Reply: > 100 µM

Task item: Recorded TGI of [N-]=[N+]=CC(=O)OC1Cc2ccccc2C1 , please.
Reply: > 100 µM

Task item: // lookup TGI for Cc1cc2c(cc1C(=O)c1ccc(N)cc1)OCO2
Reply: > 100 µM

Task item: Sample CC(=O)O[C@H]1CC[C@@]2(C)C(=CC[C@H]3[C@@H]4C/C(=C\c5ccc(N(C)C)cc5)[C@H](OC(C)=O)[C@@]4(C)CC[C@@H]32)C1 — what was its TGI?
Reply: > 100 µM

Task item: Quick one: TGI for CC(=O)OCC1OC(OC2CC3C(C)(C)C(O)CC[C@]3(C)C3CCC45CC4(CCC5[C@@H](C)CC(O)C(O)C(C)(C)O)[C@]23C)C(O)C(O)C1O (stereo partly drawn) ?
Reply: > 10 µM

Task item: Entry COc1ccc(C[C@H]2COC(=O)[C@@H]2Cc2cccc(Br)c2)cc1OC has what TGI?
Reply: 82.3 µM

Task item: Which TGI reading was recorded for the molecule COC1CCCCN1C(=O)c1ccccc1 (stereo not drawn) ?
Reply: > 25.3 µM

Task item: What does the data say about its TGI? Entry: COC(=O)C1=C(O)c2ccc(Cl)cc2S(=O)(=O)N1C
Reply: > 100 µM

Task item: Given C=C(Nc1nc2ccc(C)cc2s1)C(=O)C(CC)C(=O)C(CC)CC1C(=O)NC(=O)NC1=O (stereo not drawn) , state its recorded TGI.
Reply: > 100 µM

Task item: Entry C=CCC1(CN(C)C)CC/C(=C\c2ccc(Cl)cc2)C1=O (stereo not drawn) : reported TGI = ?
Reply: 53 µM

Task item: TGI lookup needed for COC12C(COC(N)=O)C3=C(C(=O)C(C)=C(N)C3=O)N1CC1C2N1C (stereo not drawn) , thanks.
Reply: 18.6 µM

Task item: Item under review: C[C@H]1C(=O)O[C@@H]2CCN3CC=C(COC(=O)[C@](C)(O)[C@@]1(C)O)[C@H]23 . Reported TGI?
Reply: > 100 µM

Task item: Using the record for CS(=O)(=O)c1ccc(-c2cc(-c3ccc(S(C)(=O)=O)cc3)[n+](-c3cc(-c4ccccc4)c([O-])c(-c4ccccc4)c3)c(-c3ccc(S(C)(=O)=O)cc3)c2)cc1 , report its TGI.
Reply: > 100 µM

Task item: Quick one: TGI for C=CCN1CCC(O)(c2cc(C(=O)OCC)[nH]c2-c2cc(C)no2)C1 (stereo not drawn) ?
Reply: > 100 µM

Task item: Item Cc1ncc([N+](=O)[O-])n1CCNCCCCn1ccnc1[N+](=O)[O-] has what recorded TGI?
Reply: > 100 µM

Task item: Give its TGI value. Item: O=C(O)CCSC(CC1(c2ccc(Cl)cc2)NC(=O)CCS1)c1ccccc1 (stereo not drawn)
Reply: > 100 µM

Task item: What does the record list as TGI for CC1(C)OC2C(O)C(CO)OC2(C(F)F)O1 (stereo not drawn) ?
Reply: > 100 µM

Task item: GET /values?readout=TGI&item= CC(C)(C)OC/C=C(/CO)[C@@H]1C=C[C@H](O)C1
Reply: > 100 µM

Task item: Which TGI value is on record for COc1ccc(/C=C2\c3cc(OC)c(OC)cc3CCN2C(=O)c2ccccc2)cc1OC ?
Reply: 80.6 µM

Task item: Could you tell me which TGI is on file for Nc1ccn(C2OC(C(O)CO)C(O)C2O)c(=O)n1 (stereo not drawn) ?
Reply: > 100 µM

Task item: Quick one: TGI of Cc1nn(C(=O)CC(=O)Nc2ccc(Cl)cc2)c(C)c1N=Nc1ccccc1C(=O)O ?
Reply: > 100 µM

Task item: Looking for the measured TGI of CCC(=O)O[C@H]1CC[C@H]2[C@@H]3CCC4=C/C(=N/OC(=O)c5cccc6cc7ccccc7nc56)CC[C@]4(C)[C@H]3CC[C@]12C , can you help?
Reply: > 100 µM

Task item: GET /values?readout=TGI&item= O=C1c2cccc3cccc(c23)C(=O)N1CCCCCN1CCN(CCCCCOc2ccc(-c3nc4ccc(N5CCOCC5)cc4[nH]3)cc2)CC1
Reply: 2.29 µM

Task item: Look up TGI for this molecule: [N-]=[N+]=N/C1=C/CCCCC(=O)C1
Reply: > 100 µM

Task item: # lookup: TGI of CC(=O)N(C)CCc1c[nH]c2ccccc12
Reply: > 100 µM

Task item: Which TGI value is on record for O=C(/C=C/C=C/c1ccccc1)c1ccccc1 ?
Reply: 49.4 µM

Task item: I would be grateful if you could share the reported TGI for Cn1c2ccccc2c(=O)c2cccc(C(=O)NC(CS)C(=O)O)c21 (stereo not drawn) .
Reply: > 100 µM

Task item: What value of TGI has been recorded for this entry: O=C(O)c1ccc(C(=O)O)c2c(C(=O)O)ccc(C(=O)O)c12
Reply: > 100 µM

Task item: Would you mind telling me what TGI value was observed for Nc1ccccc1N=Cc1cc2cc([N+](=O)[O-])ccc2s1 ?
Reply: 13.6 µM

Task item: Reported TGI, molecule COc1ccccc1Nc1ncc(-c2ccccc2)o1 : ____
Reply: > 25 µM

Task item: Could you tell me which TGI is on file for Cc1cc(C(F)(F)F)cc(-n2nc(NS(=O)(=O)c3cc(C)c(Cl)cc3S)nc2N)n1 ?
Reply: 69.5 µM

Task item: Look up TGI: COc1cc(/C=C\c2cc(OC)c(OC)c(OC)c2)cc(N/C=C\C(=O)c2cc(OC)c(OC)c(OC)c2)c1OC
Reply: > 100 µM

Task item: What does the data say about its TGI? Entry: O=S(=O)(c1ccccc1)N1N=C2c3ccccc3CCC[C@H]2C1c1ccccc1 (stereo partly drawn)
Reply: > 100 µM

Task item: Given the entry CC(=O)NNc1nc(-c2ccc([N+](=O)[O-])cc2)c(C#N)c(=O)n1C , report its measured TGI.
Reply: > 100 µM

Task item: So what does the record say about TGI for COc1cccc(C2CC23C(=O)NC(=O)NC3=O)c1 (stereo not drawn) ?
Reply: > 100 µM

Task item: Quick check: TGI of Cc1c2cccc-2c(OCCO)cc2c3ccccc3n(C)c12 ?
Reply: 34.6 µM

Task item: Which measured TGI value corresponds to CSc1nc(NC2OC(COC(C)=O)C(OC(C)=O)C(OC(C)=O)C2OC(C)=O)c(N=CC=Nc2c(NC3OC(COC(C)=O)C(OC(C)=O)C(OC(C)=O)C3OC(C)=O)nc(SC)n(C)c2=O)c(=O)n1C (stereo not drawn) ?
Reply: > 100 µM

---

What TGI was measured for each of the following?
Tested on: RPMI-8226 leukemia
ASSAY OVERVIEW: NCI tumour cell line growth inhibition, 48 h

Task item: Given Nc1c(C(=O)c2ccccc2)cnn1-c1ccc(F)cc1 , state its recorded TGI.
Reply: > 25 µM

Task item: Recorded TGI of CC(C)(C)OC/C=C(/CO)[C@@H]1C=C[C@H](O)C1 , please.
Reply: > 100 µM

Task item: Any idea what its TGI is? The molecule is CC1CN=C(N(C(=O)Nc2ccc(Cl)c(Cl)c2)c2ccccc2)S1 (centres undefined)
Reply: > 100 µM

Task item: // returns reported TGI for input CC1(C)CC(=O)CC(=Nc2ccc([N+](=O)[O-])cc2)C1
Reply: > 100 µM

---

System: KM12 colon
ASSAY OVERVIEW: NCI tumour cell line growth inhibition, 48 h
Where a SMILES comes first, the peptide text is derived from it. The star is where a group is joined. Cbz = O=C(OCc1ccccc1)*
For each record, write down the corresponding TGI.

Task item: May I ask what TGI has been recorded for c1ccc2c(c1)SCCC2NC1=NCCO1 (stereo unspecified) ?
Reply: > 100 µM

Task item: Could you share which TGI value was measured for CC(C)C(C/C=C1\CC(CO)(COC(=O)C(C)(C)C)OC1=O)C(C)C (stereo unspecified) ?
Reply: 28.2 µM

Task item: Quick one: TGI of CC(NC(=O)C(NC(=O)OCc1ccccc1)C(C)C)C(=O)NCC(=O)O (stereo not drawn) (Cbz-Val-Ala-Gly-OH; configuration not given here) ?
Reply: > 100 µM

Task item: Given the entry COC(=O)c1ccc(-c2c(C#N)[n+](=O)c3cc(Cl)c(Cl)cc3n2[O-])cc1 , report its measured TGI.
Reply: 51.3 µM

Task item: Tell me the measured TGI of O=c1[nH]c2ccc(O)cc2o1 , please.
Reply: > 100 µM

Task item: Please report the recorded TGI for COc1ccc(/C=C(\C(C)=O)C(=O)Nc2ccccc2)cc1 .
Reply: > 100 µM

Task item: Returns the measured TGI for the input molecule. Input: COc1ccc(-c2cc(/C=C/C(=O)c3ccc(OC)c(OC)c3)[nH]n2)cc1
Reply: 3.11 µM

Task item: Would you kindly share the measured TGI for C=CCN(C(=O)CNC(=O)C(F)(F)F)c1cc(OCc2ccccc2)c2c(c1)c(C)cn2S(=O)(=O)c1ccccc1 ?
Reply: > 100 µM

Task item: I'd like to know its TGI. The molecule in question is Cn1c2c(c3ccccc31)CCN1C(=O)CN(C(=O)C3CCCCC3)CC21 (stereo unspecified)
Reply: > 100 µM

Task item: Look up TGI: O=C(Nc1ccc([N+](=O)[O-])cc1[N+](=O)[O-])C(=O)C(C(=O)c1ccc2ccccc2c1)C1OC(=O)c2ccccc21 (stereo unspecified)
Reply: 40.3 µM

Task item: Fill in: TGI of O=c1oc2c/c(=C\c3ccc([N+](=O)[O-])cc3)c(=O)c3cccc1c3-2 is ___
Reply: > 100 µM

Task item: Field request: TGI | item: Nc1n[nH]c(=O)c2c1c(I)cn2C1OC(CO)C(O)C1O (stereo unspecified)
Reply: > 100 µM

Task item: Look at this molecule and give its reported TGI. CC1(C)OC2C(O)C(CO)OC2(C(F)F)O1 (stereo unspecified)
Reply: > 100 µM

Task item: Which value of TGI has been reported for CN(C)C(=S)Sc1ccc([N+](=O)[O-])cc1[N+](=O)[O-] in the records?
Reply: 12.7 µM

Task item: Given N=C1C(=N)c2ccccc2-c2ccccc21.N=C1C(=N)c2ccccc2-c2ccccc21.N=C1C(=N)c2ccccc2-c2ccccc21.[Cl-].[Ru+2] , state its recorded TGI.
Reply: > 68 µM

Task item: Which TGI value is on record for COc1ccc(C2=C3SC=c4ccccc4=C3ON=C2c2ccccc2)cc1 ?
Reply: > 100 µM

Task item: # query: TGI of entry CN(C)c1ccc(N=Nc2ccccn2)c(O)c1
Reply: > 76.9 µM

Task item: Consider the molecule shown here: CC(=O)O[C@H]1CC[C@@]2(C)C(=CC[C@H]3[C@@H]4C/C(=C\c5ccc(N(C)C)cc5)[C@H](OC(C)=O)[C@@]4(C)CC[C@@H]32)C1 What is its recorded TGI?
Reply: > 100 µM

Task item: What value of measured TGI is listed for C=CCc1ccc(O)c(-c2ccc(O)c(CC=C)c2)c1 ?
Reply: 34 µM

Task item: I would be grateful if you could share the reported TGI for CC(C)(C)OC/C=C(/CO)[C@@H]1C=C[C@H](O)C1 .
Reply: > 100 µM

Task item: For the molecule shown here, CC1=C(CO)C2=C(C)C3(CC3)[C@@](C)(O)C(=O)C2=C1 , give the reported TGI.
Reply: 2.81 µM

Task item: # input molecule: CCN(CC)CCSc1c2ccccc2nc2c(OC)ccc(OC)c12 ; wanted: its TGI
Reply: 16.8 µM

Task item: Quick one: TGI of CCCOC(=O)CNC(=O)OC(C)(C)C ?
Reply: > 100 µM

Task item: Field request: TGI | item: CC(C)=CCC/C(C)=C/CC/C(C)=C/CC(CO)N(C)CC/C=C(\C)CCC=C(C)C (stereo unspecified)
Reply: 14.5 µM

Task item: Would you kindly share the measured TGI for CC1CCN(C(=O)OCc2nc3nc(Cl)nc(N4CCOCC4)c3[nH]2)CC1 ?
Reply: 3.33 µM

Task item: What value of measured TGI is listed for COC(=O)c1ccc2c(c1)/C(=C\c1cc(Br)c(O)c(Br)c1)C(=O)N2 ?
Reply: > 25 µM

Data origin, for the record: PubChem BioAssay (NCI)
